- System: Zika virus NS2B-NS3 protease (unlinked complex)
- PROCEDURE_TEXT: Primary screen GU Rhodamine qHTS for Zika virus inhibitors: Unlinked NS2B-NS3 protease assay (AID 1347159); also: nearly all actives have a fitted effect of over 60% in size
- MEASUREMENT_CONDITIONS: Recombinant ZIKV NS2B-NS3 protease, Rhodamine110 substrate fluorescence; series mostly up to 107 µM
- Description: Avindra Nath, Ph.D., National Institute of Neurological Disorders and Stroke (NINDS), Bethesda, MD Radhakrishnan Padmanabhan, Ph.D., Georgetown University (GU), Washington D.C. Zika Virus causes congenital defects, including microcephaly and is associated with Guillain-Barre syndrome, eningoencephalitis and myelitis in infected adult. […]
Records with an inconclusive call do not appear. The source made the active and inactive calls. Calls follow the shape of the dose curve; as a rule, active = well fitted inhibition curve with a large enough effect; inconclusive = small, poorly fitted or top-dose-only effect; inactive = no such curve, though single readings can be large or run the other way.
Valid outcomes are listed here; reply with one: active, inactive

SMILES_STRUCTURE	ANSWER_LABEL
C/C(=N\O)c1ccc(OCC(=O)N2CCCCC2)cc1	inactive
CC1(C)S[C@@H]2[C@H](NC(=O)[C@H](NC(=O)N3CCN(S(C)(=O)=O)C3=O)c3ccccc3)C(=O)N2[C@H]1C(=O)O	inactive
CC1(C)[C@@H](O)CC[C@]2(C)[C@H]3C(=O)C=C4[C@@H]5C[C@@](C)(C(=O)O)CC[C@]5(C)CC[C@@]4(C)[C@]3(C)CC[C@@H]12	active
COC(=O)C1=C(C)NC(C)=C(C(=O)OC)C1c1cccc(NC(=O)NCCCN2CCC(c3cccc(OC)c3)CC2)c1	inactive
COC(=O)[C@H]1[C@H]2C[C@@H]3c4[nH]c5cc(OC)ccc5c4CCN3C[C@H]2C[C@@H](OC(=O)/C=C/c2cc(OC)c(OC)c(OC)c2)[C@@H]1OC	inactive

Could you now look at the following compound, please?
Incoming: Please state the recorded outcome for this compound: `CCCCN(CC)c1nc(C)nc2c1c(C)cn2-c1c(C)cc(C)cc1C`
Outgoing: inactive
